# ASSAY PROTOCOL: recombinant barcode read abundance after kanamycin selection (control-corrected) (log10(CPM+1)); higher = more efficient recombination; sequences stand for … in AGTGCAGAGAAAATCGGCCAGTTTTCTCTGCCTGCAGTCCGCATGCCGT…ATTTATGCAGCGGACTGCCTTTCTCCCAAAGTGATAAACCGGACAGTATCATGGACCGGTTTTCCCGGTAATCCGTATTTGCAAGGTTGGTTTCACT; site = the 11-nt target
MEASURED QUANTITY: recombinant barcode read abundance (log10)
A bare number is all that is needed in reply.

GTCGCCCCCTGGGTTCTAACCTGTTGCTAAG [GTCGCCCCTTA_LTGcore_CC_RTGcore_CT] (site GTCGCCCCTTA) (LTG core: CC, RTG core: CT) : 0.771
AAACATGGCTGGGTTCTAACCTGTTGCCTGC [AAACATGCTAG_LTGcore_GC_RTGcore_GC] (site AAACATGCTAG) (LTG core: GC, RTG core: GC) : 0.233

Exam item: Any idea what its recombinant barcode read abundance (log10) is? The sequence is GGTGCCCGTTGGGTTCTAACCTGTTGCCGAG [GGTGCCCCTCG_LTGcore_GT_RTGcore_CT] (site GGTGCCCCTCG) (LTG core: GT, RTG core: CT)
Marked response: 0.0597
